- Test system: D54 ERlucT glycosylation luciferase reporter, luminescence, 24 h
- run.description: N-linked glycosylation inhibitors, luciferase reporter, dose response, D54 ERlucT cells, luminescence, cherry-picks (AID 624491);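 further: signal gain reflects blocked N-linked glycosylation of a luciferase reporter; actives raise luciferase signal so AC26 marks activators of the reporter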
readout.type: AC26

These solved cases illustrate the format of a correct answer.
compound="O=C(CC1Nc2ccccc2NC1=O)Nc1ccccc1 (stereo unspecified)" readout_type=AC26 value_observed="4880 nM"
compound=CCn1c(=O)c([N+](=O)[O-])c(Cl)c2ccccc21 readout_type=AC26 value_observed="1390 nM"
compound=COc1ccc(C(=O)/C=C2/C(=O)Nc3ccccc32)c(OC)c1 readout_type=AC26 value_observed="4070 nM"
compound=CCc1cccc(NC(=O)c2cc(S(=O)(=O)N(C)C)ccc2N2CCCC2)c1 readout_type=AC26 value_observed="646 nM"
compound=COc1ccccc1N1CC(O)=C(c2nc3ccccc3c(=O)[nH]2)C1=N readout_type=AC26 value_observed="1320 nM"

Request: // query AC26 value for entry COc1ccc([C@@H]2[C@@H]3C(=O)N(C(C)(C)C)C(=O)[C@@H]3[C@]3(Cc4ccccc4)C(=O)N(c4cccc(C)c4)C(=O)N23)cc1
Result: 1300 nM

Request: Repeat with COc1ccc(-c2n[nH]c3c2CN(C(=O)c2ccc(OC)c(OC)c2)CC3)cc1
Result: 1760 nM

Request: Repeat with CCN(CC)CCC(=O)Nc1cccc2c1C(=O)c1ccccc1C2=O
Result: 965 nM

Request: Repeat with COc1cc(C(=O)NCC(=O)NCCN2C(=O)S/C(=C\c3ccccc3Cl)C2=O)cc(OC)c1OC
Result: 2430 nM

Request: Repeat with NC(=O)COc1ccc(C(=O)/C=C2/C(=O)Nc3ccccc32)cc1
Result: 3180 nM

Request: Repeat with Cc1ccc(C(=O)Nc2cc(S(=O)(=O)N3CCOCC3)ccc2N2CCCC2)cc1
Result: 1310 nM

Request: Repeat with CC(=O)c1cccc(Nc2c3c(nc4ccccc24)CCC3)c1
Result: 819 nM

Request: Repeat with Cc1ccc(/C=N/NC(=O)C2COc3ccccc3O2)s1 (stereo unspecified)
Result: 307 nM

Request: Repeat with Cc1ccc(S(=O)(=O)C(NC(=O)c2ccccc2)=C(Cl)Cl)cc1
Result: 4090 nM

Request: Repeat with CCOc1ccccc1N1CCN(C(=O)c2cc3ccccc3cc2OC)CC1
Result: 3440 nM

Request: Repeat with Cc1[nH][nH]c(=O)c1C(c1ccc(-c2cccc(Cl)c2)o1)c1c(C)[nH][nH]c1=O
Result: < 1.2 nM

Request: Repeat with CC(C)Oc1ccccc1C1CC(=O)Nc2cc3c(cc21)OCCO3 (stereo unspecified)
Result: 844 nM

Request: Repeat with Cc1ccc(CNC(=O)Cc2ccc(Br)cc2)cc1
Result: 6690 nM

Request: Repeat with COc1ccc(OC)c(N(CC(=O)Nc2cccc3ccccc23)S(C)(=O)=O)c1
Result: 3100 nM

Request: Repeat with COc1ccc(S(=O)(=O)Nc2c(C(=O)O)[nH]c3ccc(OC)cc23)c(OC)c1
Result: 5750 nM

Request: Repeat with O=c1[nH]c(=O)n([C@H]2C[C@H](O)[C@@H](CO)O2)cc1Br
Result: 1690 nM

* * *

- System: D54 ERlucT glycosylation luciferase reporter, luminescence, 24 h
- run.description: N-linked glycosylation inhibitors, luciferase reporter, dose response, D54 ERlucT cells, luminescence, cherry-picks (AID 624491)
# reported AC26; entries follow

These solved cases illustrate the format of a correct answer.
molecule=O=C(NCCN1C(=O)S/C(=C\c2ccccc2Cl)C1=O)C1=COCCO1 measured_target="D54 ERlucT glycosylation luciferase reporter, luminescence, 24 h" value_observed="7.85 µM"
molecule=O=C(Nc1c2ccccc2nc2ccccc12)C(Cl)(Cl)Cl measured_target="D54 ERlucT glycosylation luciferase reporter, luminescence, 24 h" value_observed="3.34 µM"
molecule="Cc1ccc(NC(=O)C(Cc2ccccc2)N2C(=O)C3C4CCC(C4)C3C2=O)cc1Cl (stereo unspecified)" measured_target="D54 ERlucT glycosylation luciferase reporter, luminescence, 24 h" value_observed="3.24 µM"
molecule=O=S(=O)(Cc1ccc(Cl)cc1Cl)c1ccc(Cl)cc1 measured_target="D54 ERlucT glycosylation luciferase reporter, luminescence, 24 h" value_observed="0.234 µM"

Request: Param readout = AC26; param system = D54 ERlucT glycosylation luciferase reporter, luminescence, 24 h; param query = Cn1cccc1/C=C1\SC(=Nc2cccc(O)c2)NC1=O ; response: value
Result: 2.85 µM

Request: Repeat with CCOc1ccc(Br)cc1C(=O)Nc1ccc(C(=O)NCC(C)C)cc1
Result: 4.09 µM

Request: Repeat with CC1(C(=O)NCc2ccco2)Cc2c(-c3cccc(C(N)=O)c3)ccnc2O1 (stereo unspecified)
Result: 1.45 µM

Request: Repeat with Cn1c(=O)[nH]c(=O)c2c1nc(NN)n2CCOc1ccccc1
Result: 2.57 µM

Request: Repeat with CCOC(=O)/C(=C/c1c(C)n(C)c2ccc([N+](=O)[O-])cc12)C(C)=O
Result: 4.23 µM

Request: Repeat with CC1=CC(C)[C@H](/C=N/n2c(=O)[nH]c3c([nH]c4ccc(C)cc43)c2=O)C(C)C1 (stereo partly specified)
Result: 4.04 µM

Request: Repeat with Cc1ccc(O)c(C(=O)C=Cc2ccccc2)c1
Result: 1.21 µM

* * *

# reported AC26; entries follow
- Test system: D54 ERlucT glycosylation luciferase reporter, luminescence, 24 h
- run.description: N-linked glycosylation inhibitors, luciferase reporter, dose response, D54 ERlucT cells, luminescence, cherry-picks (AID 624491);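 further: signal gain reflects blocked N-linked glycosylation of a luciferase reporter; actives raise luciferase signal so AC26 marks activators of the reporter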

compound=Nc1sc(-c2ccccc2)cc1-c1n[nH]c(=S)n1C1CCCCC1 value_observed="10.7 µM"

Request: // query AC26 value for entry O=C(/C=C/c1c[nH]c2ccccc12)c1cccc2ccccc12
Result: 5.41 µM

Request: Repeat with O=c1cc(-c2ccc(O)cc2)oc2cc(O)c(C3OC(CO)C(O)C(O)C3O)c(O)c12 (stereo not given)
Result: 0.69 µM

Request: Repeat with Clc1ccc(C2=Nn3c(nnc3-c3cc(-c4ccccc4)n[nH]3)SC2)cc1
Result: 5.13 µM

Request: Repeat with COC(=O)c1ccc(C(=O)NC2CC(C)(C)Cc3c2cnn3-c2ccc(F)cc2)nc1 (stereo not given)
Result: 4.17 µM

Request: Repeat with O=C(N=Nc1c(O)[nH]c2ccc(Br)cc12)c1cc(-c2cccs2)nc2ccccc12
Result: 4.85 µM

Request: Repeat with CC(C)(C)c1ccc(OCc2ccc(C(=O)N3CCOCC3)o2)cc1
Result: 2.16 µM

Request: Repeat with COc1ccc(C2=Nn3c(nnc3-c3ccccc3F)SC2)cc1OC1CCOC1 (stereo not given)
Result: 4.73 µM

Request: Repeat with Nc1ccc(C(=O)Nc2ccccc2N)cc1
Result: 2.88 µM

Request: Repeat with c1ccc(-c2cc(NCCN3CCCCC3)c3ccccc3n2)cc1
Result: 2.91 µM

* * *

- Tested on: D54 ERlucT glycosylation luciferase reporter, luminescence, 24 h
- run.description: N-linked glycosylation inhibitors, luciferase reporter, dose response, D54 ERlucT cells, luminescence, cherry-picks (AID 624491);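 further: signal gain reflects blocked N-linked glycosylation of a luciferase reporter; actives raise luciferase signal so AC26 marks activators of the reporter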
# reported AC26; entries follow

These solved cases illustrate the format of a correct answer.
smiles_entry=CN(Cc1ccccc1)c1nc2c(c(=O)n(C)c(=O)n2C)n1CCCc1ccccc1 readout_type=AC26 value_observed="981 nM"
smiles_entry=Oc1cc(NCc2ccc(Cl)cc2)cc2cccnc12 readout_type=AC26 value_observed="6410 nM"

Request: // query AC26 value for entry C[C@@H]1[C@@H](Sc2ccccc2)CC(=O)O[C@@H]1c1ccc(-c2ccccc2)cc1
Result: 920 nM

Request: Repeat with Cn1c(=O)[nH]c(=O)c2c1nc(N/N=C/c1cccnc1)n2Cc1ccc(Cl)cc1
Result: 1630 nM

Request: Repeat with Cc1ccc(-c2nc3ncccc3o2)cc1NC(=O)c1ccc([N+](=O)[O-])o1
Result: 4010 nM

Request: Repeat with COc1ccc2[nH]c(C(=O)N/N=C/c3ccccc3OC)cc2c1
Result: 1010 nM

* * *

# reported AC26; entries follow
- System: D54 ERlucT glycosylation luciferase reporter, luminescence, 24 h
- run.description: N-linked glycosylation inhibitors, luciferase reporter, dose response, D54 ERlucT cells, luminescence, cherry-picks (AID 624491);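 further: signal gain reflects blocked N-linked glycosylation of a luciferase reporter; actives raise luciferase signal so AC26 marks activators of the reporter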

These solved cases illustrate the format of a correct answer.
smiles_entry=c1ccc2c(c1)nc(N1CCOCC1)c1c3ccccc3[nH]c21 readout_type=AC26 value_observed="7170 nM"
smiles_entry=Cc1cc(=O)n2c3c(c4c(cc13)c(CN(C)C)cc(=O)n4C)OC2 readout_type=AC26 value_observed="3030 nM"
smiles_entry=CC(=O)N(C1=C(Cl)C(=O)c2ccccc2C1=O)C1CCCCC1 readout_type=AC26 value_observed="31.1 nM"
smiles_entry=COc1cc2c(c(OC)c1OC)-c1ccc(OC)c(=O)cc1[C@@H](N(C)CC#CCO)CC2 readout_type=AC26 value_observed="380 nM"

Now, please, on to the next compound.
Request: // query AC26 value for entry CCn1c2ccccc2c2cc(/C=N/NC(=O)c3ccc(O)cc3)ccc21
Result: 2160 nM

Source: PubChem BioAssay AID624491
